- SYSTEM_UNDER_TEST: Gag-Pol polyprotein [588-1027,K690N]/[588-1147,K690N] (Human immunodeficiency virus 1, UniProt P04585, K690N)
- MEASUREMENT_NOTES: HIV-1 RT Assay
- CONDITION_LABEL: pH 8.2
Note to self: IC50 under 1000 nM means Yes, ties and anything higher get No.

[Q] Item NC(=O)c1[nH]c2ccc(Cl)cc2c1Sc1ccccc1 : IC50 beneath 1000 nM, strictly?
[A] No

[Q] Continue with CC(C)=CCN1Cc2cc(Cl)cc3[nH]c(=S)n(c23)C[C@@H]1C
[A] No

[Q] Same for [O-][S+](Cc1[nH]c2ccccc2c1Sc1ccccc1)c1ccccc1 (stereo not given)
[A] No

[Q] What about this compound? NC(=O)c1[nH]c2ccc(Cl)cc2c1[S+]([O-])c1ccccc1 (stereo not given)
[A] No

[Q] Field entry: NC(=O)c1[nH]c2ccc(Cl)cc2c1S(=O)(=O)c1ccccc1 [5Cl3PhSO2-2IndolCONH2]
[A] Yes
